Target: human recombinant adrenergic α2A receptor (Homo sapiens, UniProt P08913)
Construct: expressed in transfected cells; host or cells: insect Sf9 cells
Sequence (P08913 whole entry): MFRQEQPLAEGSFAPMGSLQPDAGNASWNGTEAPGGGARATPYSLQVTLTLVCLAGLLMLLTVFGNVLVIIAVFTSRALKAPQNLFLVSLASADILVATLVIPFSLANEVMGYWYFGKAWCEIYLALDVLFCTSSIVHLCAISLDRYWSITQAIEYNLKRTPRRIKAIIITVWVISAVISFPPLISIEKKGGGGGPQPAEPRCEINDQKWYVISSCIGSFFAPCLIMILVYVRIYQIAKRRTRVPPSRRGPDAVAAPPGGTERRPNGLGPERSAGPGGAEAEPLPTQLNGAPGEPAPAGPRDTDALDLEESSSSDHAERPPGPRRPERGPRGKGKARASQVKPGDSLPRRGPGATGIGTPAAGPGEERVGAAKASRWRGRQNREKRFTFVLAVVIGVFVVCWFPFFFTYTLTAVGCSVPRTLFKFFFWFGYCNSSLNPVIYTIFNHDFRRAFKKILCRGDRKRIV
Assay: Radioligand binding, adrenergic α2A receptor ([3H]MK-912)
Settings: 0.1 μM compound; Sf9 cells; 1 nM [3H]MK-912; read-out: Percentage inhibition of ligand binding, Adrenergic α2A
Experimental: To evaluate in radioligand binding assays the activity of compounds, human recombinant adrenergic α2A receptor expressed in insect Sf9 cells (Uhlen, S. et al, J. Pharmacol. Exp. Ther. 271:1558, 1994) in a modified Tris-HCl buffer (50 mM Tris-HCl, pH 7.4, 12.5 mM MgCl2, 2 mM EDTA) was used. Compounds were incubated with 1 nM [^3H]MK-912 for 60 min at 25° C. […] Receptor proteins were filtered and washed, the filters were then counted to determine [^3H]MK-912 specifically bound. […]
Assign inhibition at 0.1 µM to each entry below.
One number for each entry, in %.

Here are 10 molecules together with their reported answers.
INSERT INTO results (mol, measurement_kind, reported_result) VALUES
  ('Cc1cc(C)c2c(c1)c1c(n2-c2ccc3ncccc3c2)CCN(C)C1', 'inhibition at 0.1 µM', 19),
  ('CNC(=O)c1ccc(-c2cscc2-n2c3c(c4cc(C)ccc42)CN(C)CC3)cc1', 'inhibition at 0.1 µM', 9),
  ('COc1ccc(-c2cscc2-n2c3c(c4cc(C)ccc42)CN(C)CC3)cc1', 'inhibition at 0.1 µM', 88),
  ('Cc1ccc2c(c1)c1c(n2-c2cccc(-c3cc4ccccc4s3)c2)CCN(C)C1', 'inhibition at 0.1 µM', 27),
  ('Cc1ccc2c(c1)c1c(n2-c2cccc(-c3cnc(N(C)C)nc3)c2)CCN(C)C1', 'inhibition at 0.1 µM', 17),
  ('Cc1ccc2c(c1)c1c(n2-c2cccc(-c3ccc(C)nc3)c2)CCN(C)C1', 'inhibition at 0.1 µM', 62),
  ('Cc1cc(C)c2c(c1)c1c(n2-c2cccc3ncccc23)CCN(C)C1', 'inhibition at 0.1 µM', 62),
  ('Cc1ccc2c(c1)c1c(n2-c2ccc(-c3sccc3C)cn2)CCN(C)C1', 'inhibition at 0.1 µM', 50),
  ('Cc1ccc2c(c1)c1c(n2-c2cccc(-c3ccc(F)nc3)c2)CCN(C)C1', 'inhibition at 0.1 µM', 29),
  ('Cc1csc(-c2cscc2-n2c3c(c4cc(C)ccc42)CN(C)CC3)c1', 'inhibition at 0.1 µM', 88);

# map each molecule to its inhibition at 0.1 µM
1. Cc1ccc2c(c1)c1c(n2-c2cccc(-c3ccnn3C)c2)CCN(C)C1
2. Cc1ccc2c(c1)c1c(n2-c2ccccc2-c2ccc(C)nc2)CCN(C)C1
3. CNC(=O)c1cccc(-c2cscc2-n2c3c(c4cc(C)ccc42)CN(C)CC3)c1
4. Cc1ccc2c(c1)c1c(n2-c2ccccc2-c2sccc2C)CCN(C)C1

OUT:
39
77
20
85

# map each molecule to its inhibition at 0.1 µM
1. CC(=O)Nc1ccc(-c2cccc(-n3c4c(c5cc(C)ccc53)CN(C)CC4)c2)cn1
2. Cc1ccc2c(c1)c1c(n2-c2ccccc2-c2cn[nH]c2)CCN(C)C1

OUT:
1. 12
2. 10

IN: Fill in inhibition at 0.1 µM for record Cc1ccc2c(c1)c1c(n2-c2ccccc2-c2cccn2C)CCN(C)C1
OUT: 84
